System: Streptococcus pneumoniae
Measurement description: Antibacterial activity against erythromycin-resistant Streptococcus pneumoniae A22072 expressing mefA gene
Assay type: functional
Doc: threshold 0.06 µg/mL (exclusive). Items with MIC beneath it return rule met; others return rule not met.

-- ask API: query returns whether the compound falls strictly under 0.06 µg/mL in MIC. Query: "CC[C@H]1OC(=O)[C@H](C)[C@@H](O[C@H]2C[C@@](C)(OC)[C@@H](OC(=O)NCc3cn(Cc4c(Cl)cccc4Cl)nn3)[C@H](C)O2)[C@H](C)[C@@H](O[C@@H]2O[C@H](C)C[C@H](N(C)C)[C@H]2O)[C@](C)(O)C[C@@H](C)CN(C)[C@H](C)[C@@H](O)[C@]1(C)O"
-- reply rule not met

-- ask Determine if "CC[C@H]1OC(=O)[C@H](C)[C@@H](O[C@H]2C[C@@](C)(OC)[C@@H](OC(=O)NCc3cn(Cc4ccccc4)nn3)[C@H](C)O2)[C@H](C)[C@@H](O[C@@H]2O[C@H](C)C[C@H](N(C)C)[C@H]2O)[C@](C)(O)C[C@@H](C)CN(C)[C@H](C)[C@@H](OC(=O)NCc2ccccc2)[C@]1(C)O" shows MIC strictly lower than 0.06 µg/mL.
-- reply rule not met

-- ask Report whether reported MIC is lower than 0.06 µg/mL (strictly) for "CC[C@H]1OC(=O)[C@H](C)[C@@H](O[C@H]2C[C@@](C)(OC)[C@@H](OC(=O)NCc3cn(Cc4ccc(C)cc4)nn3)[C@H](C)O2)[C@H](C)[C@@H](O[C@@H]2O[C@H](C)C[C@H](N(C)C)[C@H]2O)[C@](C)(O)C[C@@H](C)CN(C)[C@H](C)[C@@H](OC(=O)NCc2ccc(OC)cc2)[C@]1(C)O"
-- reply rule met

-- ask Strictly below 0.06 µg/mL in MIC? "CC[C@H]1OC(=O)[C@H](C)[C@@H](O[C@H]2C[C@@](C)(OC)[C@@H](OC(=O)NCc3cn(Cc4ccccc4Cl)nn3)[C@H](C)O2)[C@H](C)[C@@H](O[C@@H]2O[C@H](C)C[C@H](N(C)C)[C@H]2O)[C@](C)(O)C[C@@H](C)CN(C)[C@H](C)[C@@H](OC(=O)NCc2ccc(OC)cc2)[C@]1(C)O"
-- reply rule met

-- ask MIC strictly < 0.06 µg/mL for this compound? "CC[C@H]1OC(=O)[C@H](C)[C@@H](O[C@H]2C[C@@](C)(OC)[C@@H](OC(=O)NCc3cn(Cc4cccc(F)c4)nn3)[C@H](C)O2)[C@H](C)[C@@H](O[C@@H]2O[C@H](C)C[C@H](N(C)C)[C@H]2O)[C@](C)(O)C[C@@H](C)CN(C)[C@H](C)[C@H]2OC(=O)O[C@@]21C"
-- reply rule not met
